Below, each entry is listed with its recorded Kd.
assay_target: T1, receptor-binding domain (RBD) of the wild-type SARS-CoV-2 spike protein (SARS-CoV-2, UniProt P0DTC2 333-527)
T1 construct: also called SARS-CoV-2 RBD
method_description: BLI
particulars: both partners purified
Write the number in nM without appending the unit.

hRBD10 (antibody, V domains shown) VH: EVQLVESGGGLVQPGGSLRLSCSASGFTFTTYNMNWVRQAPGKGLEWVSYISSSSSTIYYADSVEGRFTISRDNAKNSLYLQMNSLRDEDTAVYYCARGVGATSYYYHGMDVWGQGTTVSVSS VL: DIQMTQSPSSLSASVGDRVTITCRASQSIYSYLNWYKQKAGKAPKLLIYAASSLQSGVPSRFSGSGSGTDFTLTIISLQPEDFATYYCQQSYSTPPTFGQGTKVEIK	0.173

# evaluate next
The binder identified as hRBD11 (antibody, V domains shown) VH: QVQLQESGPGLVKPSQTLSLTCTVSGGSISSGGYYWSWIRQHPGKGLEWIGYIFYSGSTYYNPSLKSRVIISVDTSKNQFSLKLSSVTAADTAAYYCARVNRVYGSGSYSLDPWGQGTLVTVSS VL: QSALTQPASVSGSPGQSITISCTGTSRDVGDYDYVSWYQQHPGKAPKLMIYEGSERPSGVSNRFSGSKSGNTASLTISGLQAEDEADYYCCSYTGSSTSFLFGTGTKVTVL registered its Kd at 8.87
